Hello, the source for this data is paper PMC6208443, in case you need it.

Target: T1, RsAGDP1 AGD12 (residues 26–180) (Raphanus sativus)
T1 chain: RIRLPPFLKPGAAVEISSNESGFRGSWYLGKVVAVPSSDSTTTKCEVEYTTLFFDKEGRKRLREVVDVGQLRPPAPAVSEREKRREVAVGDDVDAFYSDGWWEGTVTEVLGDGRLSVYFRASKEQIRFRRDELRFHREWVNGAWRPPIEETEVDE
Test: ITC
Square brackets hold non-standard residues; d marks the D form. Ends that are not written are not given here. Lys(Me2) = CN(C)CCCC[C@H](N)C(=O)O; Lys(Me) = CNCCCC[C@H](N)C(=O)O
PROPERTY MEASURED: Kd (µM)

ART[Lys(Me)]QTAR[Lys(Me2)]STGGKA [H3K4me1K9me2 peptide]    23.4

A: ARTKQTARKSTGGKA (trimethyl-lysine at K9) [H3K9me3 peptide (ITC)]
B: ART[Lys(Me2)]QTAR[Lys(Me2)]STGGKA [H3K4me2K9me2 peptide]
Problem: Which of these two has the smaller recorded Kd: A or B ? // respond with label for picked entry
Solution: B
(B: 25.5 µM, A: 101 µM)
